biological target: SUMO-conjugating enzyme UBC9 (Homo sapiens) (UniProt P63279); assay: blockers of UBC9-mediated SUMO conjugation – biochemical, AlphaScreen, SUMOylation inhibitor project, confirmation (AID 2018); conditions: AlphaScreen in vitro SUMOylation assay; at 35 µM
Sequence (P63279 whole entry, looked up): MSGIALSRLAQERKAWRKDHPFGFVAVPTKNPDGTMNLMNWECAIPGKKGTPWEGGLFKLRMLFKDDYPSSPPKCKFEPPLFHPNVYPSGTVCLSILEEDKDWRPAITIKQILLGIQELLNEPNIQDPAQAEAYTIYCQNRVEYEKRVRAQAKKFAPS
Out of some 1,200 compounds screened, about 600 (50%) were called active. Rule as the data show it: active = inhibition above about 42%; inactive = the rest. So high a share suggests a set chosen from earlier hits. The list shows a part of the results. Potency and affinity values are given separately.
API: response.call in true = active, false = inactive

Here's what some known entries look like.
O=C(Nc1ccc2nc(-c3ccco3)c(-c3ccco3)nc2c1)N1CCN(c2ccccn2)CC1    true
c1ccc(Nc2ccccc2Nc2ccccn2)nc1    false
S=c1[nH]nc(-c2cc(-c3ccco3)[nH]n2)n1-c1cccc2ccccc12    true
N#Cc1c(N)nc2c(c1-c1ccc3c(c1)OCO3)CCc1ccccc1-2    false
O=C(NCc1ccccc1)Nc1cccn(Cc2ccccc2Cl)c1=O    false

Outcome logged for `CCN(C(=S)Nc1cc(S(=O)(=O)N2CCOCC2)ccc1Cl)c1cccc2ccccc12` in this assay:
false

What outcome does the record of this test show for O=C1CC(c2ccco2)CC(O)=C1C=NCC1NCCc2ccccc21 (stereo not given) ?
false

Please state the recorded outcome for this molecule: `O=C(NCCc1ccccc1)c1ccc2nc(-c3ccco3)c(-c3ccco3)nc2c1`
true

Which outcome did this test record for the molecule `Cn1c(=O)cc(C(=O)N/N=C/c2ccc(Cl)cc2)[nH]c1=O` ?
false

# lookup: test call for `Cc1ccc(-n2c(-c3cc(-c4ccco4)[nH]n3)n[nH]c2=S)c(Br)c1`
true

# fetch the recorded call for `O=C(NCc1ccccc1)c1ccc2nc(-c3ccco3)c(-c3ccco3)nc2c1` here
true

Write down the call the test reported for this molecule. Item: `S=c1[nH]nc(-c2cc(-c3ccco3)[nH]n2)n1-c1ccccc1Cl`
true

Assay outcome for `CN(C)/C=C1\Oc2ccc3ccccc3c2C1=O` : what was it?
false

GET /call?item= `COc1ccc(OC)c2c1C(=O)c1ccccc1C2=O` returns the recorded outcome of this test.
true

---

target: SUMO-conjugating enzyme UBC9 (Homo sapiens); assay: blockers of UBC9-mediated SUMO conjugation – biochemical, AlphaScreen, SUMOylation inhibitor project, confirmation (AID 2018); settings: AlphaScreen in vitro SUMOylation assay; at 35 µM; active compounds read high
Among all 1,200 compounds or so, about 600 (50%) were called active. The set was probably picked from earlier hits. The list shows a part of the results. Potency and affinity values are given separately.
// inhibition lookup, one value per entry
Provide only the numeric value, understood in %.

CCOC(=O)c1c(C)oc2c1C(=O)c1ccccc1C2=O    47.8

// `COc1ccc(S(=O)(=O)N(C)c2ccc(C(=O)NCc3ccccn3)cc2)cc1` : inhibition value = 4.9

Per the records, this compound ( `Cc1oc2c(c1C(=O)O)C(=O)c1ccccc1C2=O` ) has inhibition equal to 86.7

Lookup result for `CC(C)NC(=O)N1CCC(n2nccc2NC(=O)CCOc2ccccc2)CC1` ; measured inhibition: 9

Lab note: `C=CCN1C(=O)N(CC=C)c2cccc3cccc1c23` gave inhibition of -10.4

Value of measured inhibition for the entry COc1ccc2oc(=O)c(C(=O)NCC3CCCO3)cc2c1 (stereo unspecified) : -13.9

---

molecular target: SUMO-conjugating enzyme UBC9 (Homo sapiens) (UniProt P63279); experiment: blockers of UBC9-mediated SUMO conjugation – biochemical, AlphaScreen, SUMOylation inhibitor project, confirmation (AID 2018); conditions: AlphaScreen in vitro SUMOylation assay; at 35 µM
About 600 (50%) of roughly 1,200 compounds were called active. No stated cut-off is given here; in the data, active means inhibition above about 42%; inactive means the rest. The set was probably picked from earlier hits. The list shows a part of the results. Measured potencies and affinities stand elsewhere.
Choose one outcome from this list and give only that: class 1 for active, class 0 for inactive

Recorded results for 5 compounds are shown here.
COc1ccc(NCc2cc3ccccc3[nH]c2=O)cc1    class 1
Cc1ccc(-n2c(SCC(=O)N/N=C/c3ccccc3C(=O)O)nnc2-c2ccc(Cl)cc2)cc1    class 0
Cc1cc(C)cc(NC(=S)Nc2cccc3cnccc23)c1    class 0
O=c1[nH]c(N2CCN(c3ccccc3)CC2)nc2c1CCC2    class 0
Cc1ccc(NC(=S)Nc2cccc3cnccc23)cc1C    class 0

Give the logged outcome of this assay for the following compound: `Cc1ccc(-n2c(SCC(=O)Nc3ccc4c5c(cccc35)CC4)nc(O)cc2=O)cc1`
class 0

Fill in: this test's call for `S=C(Nc1ccc(Cl)cc1)Nc1cccc2cnccc12` is ___
class 1

# outcome recorded in this test, key = `C=CCNc1nc(NCc2ccccc2)c(C#N)c2c1CN(C)CC2`
class 0

State the result this test recorded for `CN(C)C=Nc1ccc2nc3c(cc2c1)[nH]c1ccccc13` .
class 0

Please state the recorded outcome for this compound: `COCCNC(=S)Nc1cccc2cnccc12`
class 0

Lab log entry: `COc1ccc(-c2cc(=O)[nH][nH]2)cc1` — outcome as called in the assay?
class 0

Check the results log: what was the call for `O=C1C=C(N2CCOCC2)c2ccccc2C1=O` ?
class 1

Ref: PubChem BioAssay AID2018
